# procedure summary: Kinetic solubility of compound in PBS buffer at pH7.4 incubated for
# Type: physicochemical
# condition parameters: pH 7.4, read-out: Kinetic_solubility
readout: solubility kinetic (µM)
Answers are plain numbers, in µM.

Below, each entry is followed by its recorded solubility kinetic result.
>  <chemical string>
N#Cc1cccc(/C=N/NC(=O)c2ccc(NC3CCCCC3)c(NCc3ccccc3)c2)c1

>  <value unit>
µM

>  <solubility kinetic>
22.2

$$$$
>  <chemical string>
O=C(N/N=C/c1ccc(O)cc1)c1ccc(NC2CCCCC2)c(NCc2ccccc2)c1

>  <value unit>
µM

>  <solubility kinetic>
28.6

$$$$
>  <chemical string>
O=C(N/N=C/c1ccc(Cl)cc1)c1ccc(NC2CCCCC2)c(NCc2ccccc2)c1

>  <value unit>
µM

>  <solubility kinetic>
28.6

$$$$

Next compound, solubility kinetic to be filled in.
Record `CCOC(=O)c1ccc(NC2CCCCC2)c(NCc2ccccc2)c1` , field solubility kinetic: 6.2

====

I'd be grateful if you could share measured remaining at 1 h for these entries.
# procedure summary: Microsomal stability in rat liver microsome assessed as parent compound remaining measured after 60 mins in presence of NADPH by LC-MS/MS analysis
# Format: ADME
# condition parameters: liver microsomes, read-out: Stability
Your reply should be a number followed by the unit it is expressed in.

Consider the following items and state reported remaining at 1 h for each.
1. CCOC(=O)c1ccc(NC2CCCCC2)c(N)c1
2. O=C(N/N=C/c1ccc(OCc2ccccc2)cc1)c1ccc(NC2CCCCC2)c(NCc2ccccc2)c1

[A]
1: 6.1%; 2: 1%

====

I'd be grateful if you could share measured half-life for these entries.
# procedure summary: Microsomal stability in human liver microsome assessed as half life measured upto 60 mins by LC-MS/MS analysis
# Format: ADME
# condition parameters: liver microsomes
Give bare numbers, in min.

>  <chemical string>
O=C(N/N=C/c1ccc(OCc2ccccc2)cc1)c1ccc(NC2CCCCC2)c(NCc2ccccc2)c1

>  <readout>
half-life

>  <endpoint result>
4.9

$$$$

Next compound, half-life to be filled in.
Record `CCOC(=O)c1ccc(NC2CCCCC2)c(N)c1` , field half-life: 16.8

====

# System: HUVEC
# procedure summary: Cytotoxicity against human HUVEC cells assessed as reduction in erastin-induced cell survival at 10 uM measured for 24 hrs by SRB assay
# Format: toxicity, cell-based
readout: Activity

Below, each entry is followed by its recorded Activity result.
>  <chemical string>
O=C(N/N=C/c1ccc(Cl)c(Cl)c1)c1ccc(NC2CCCCC2)c(NCc2ccccc2)c1

>  <Activity>
Non-Toxic

$$$$
>  <chemical string>
O=C(N/N=C/c1ccccc1)c1ccc(NC2CCCCC2)c(NCc2ccccc2)c1

>  <Activity>
Non-Toxic

$$$$
>  <chemical string>
COc1ccccc1/C=N/NC(=O)c1ccc(NC2CCCCC2)c(NCc2ccccc2)c1

>  <Activity>
Non-Toxic

$$$$
>  <chemical string>
O=C(N/N=C/c1ccc(F)c([N+](=O)[O-])c1)c1ccc(NC2CCCCC2)c(NCc2ccccc2)c1

>  <Activity>
Toxic

$$$$

Record `O=C(N/N=C/c1ccc(O)cc1)c1ccc(NC2CCCCC2)c(NCc2ccccc2)c1` , field Activity: Non-Toxic

====

# procedure summary: Kinetic solubility of compound in PBS buffer at pH7.4 incubated for
# Type: physicochemical
# condition parameters: pH 7.4, read-out: Kinetic_solubility
readout: solubility kinetic (µM)
Answers are plain numbers, in µM.

>  <chemical string>
O=C(N/N=C/c1ccc(OCc2ccccc2)cc1)c1ccc(NC2CCCCC2)c(NCc2ccccc2)c1

>  <value unit>
µM

>  <solubility kinetic>
20

$$$$
>  <chemical string>
O=C(N/N=C/c1cccc(OCc2ccccc2)c1)c1ccc(NC2CCCCC2)c(NCc2ccccc2)c1

>  <value unit>
µM

>  <solubility kinetic>
20

$$$$
>  <chemical string>
O=C(N/N=C/c1cccc([N+](=O)[O-])c1)c1ccc(NC2CCCCC2)c(NCc2ccccc2)c1

>  <value unit>
µM

>  <solubility kinetic>
20

$$$$

Next molecule, solubility kinetic to be filled in.
Record `COc1ccccc1/C=N/NC(=O)c1ccc(NC2CCCCC2)c(NCc2ccccc2)c1` , field solubility kinetic: 25

====

# procedure summary: Microsomal stability in rat liver microsome assessed as half life measured upto 60 mins by LC-MS/MS analysis
# Assay type: ADME
# condition parameters: liver microsomes
readout: half-life

>  <chemical string>
O=C(N/N=C/c1ccc(OCc2ccccc2)cc1)c1ccc(NC2CCCCC2)c(NCc2ccccc2)c1

>  <half-life>
9.1 min

$$$$

Record `CCOC(=O)c1ccc(NC2CCCCC2)c(N)c1` , field half-life: 18.4 min

====

# Test system: HUVEC
# procedure summary: Cytotoxicity against human HUVEC cells assessed as reduction in erastin-induced cell survival at 10 uM measured for 24 hrs by SRB assay
# Format: toxicity, cell-based
readout: Activity

>  <chemical string>
N#Cc1ccc(/C=N/NC(=O)c2ccc(NC3CCCCC3)c(NCc3ccccc3)c2)cc1

>  <readout>
Activity

>  <endpoint result>
Toxic

$$$$
>  <chemical string>
O=C(N/N=C/c1ccc(Cl)cc1)c1ccc(NC2CCCCC2)c(NCc2ccccc2)c1

>  <readout>
Activity

>  <endpoint result>
Non-Toxic

$$$$
>  <chemical string>
COc1ccc(/C=N/NC(=O)c2ccc(NC3CCCCC3)c(NCc3ccccc3)c2)c(O)c1

>  <readout>
Activity

>  <endpoint result>
Non-Toxic

$$$$
>  <chemical string>
O=C(N/N=C/c1cccc(O)c1O)c1ccc(NC2CCCCC2)c(NCc2ccccc2)c1

>  <readout>
Activity

>  <endpoint result>
Toxic

$$$$

Next compound, Activity to be filled in.
Record `CN(C)c1ccc(/C=N/NC(=O)c2ccc(NC3CCCCC3)c(NCc3ccccc3)c2)cc1` , field Activity: Non-Toxic

====

# procedure summary: Microsomal stability in human liver microsome assessed as parent compound remaining measured after 60 mins in absence of NADPH by LC-MS/MS analysis
# Type: ADME
# condition parameters: liver microsomes, read-out: Stability
readout: remaining at 1 h (%)
Numbers only, in %.

>  <chemical string>
O=C(N/N=C/c1ccc(OCc2ccccc2)cc1)c1ccc(NC2CCCCC2)c(NCc2ccccc2)c1

>  <value unit>
%

>  <remaining at 1 h>
105

$$$$

Record `CCOC(=O)c1ccc(NC2CCCCC2)c(N)c1` , field remaining at 1 h: 6

====

# procedure summary: Microsomal stability in mouse liver microsome assessed as parent compound remaining measured after 60 mins in absence of NADPH by LC-MS/MS analysis
# Format: ADME
# condition parameters: liver microsomes, read-out: Stability
readout: remaining at 1 h
Your reply should be a number followed by the unit it is expressed in.

>  <chemical string>
CCOC(=O)c1ccc(NC2CCCCC2)c(N)c1

>  <readout>
remaining at 1 h

>  <endpoint result>
5%

$$$$

Next compound, remaining at 1 h to be filled in.
Record `O=C(N/N=C/c1ccc(OCc2ccccc2)cc1)c1ccc(NC2CCCCC2)c(NCc2ccccc2)c1` , field remaining at 1 h: 38%
